# credit: paper PMC7037682

# test-summary: Pharmacokinetics of iv valsartan in rats with or without repeated iv Rc
# Format: in vivo
# condition-set: rat, plasma, 1 mg/kg, valsartan 1 mg/kg iv, control group of Rc study
# Description: The rats were randomly divided into the control and Rc groups. The Rc group was injected with Rc solution (3 mg/mL/kg, dissolved in saline) intravenously via the tail vein for 5 consecutive days. The control group received saline (1 mL/kg) for 5 consecutive days via the tail vein. […] Quantification was performed in the selected reaction-monitoring mode at m/z 436.1 → 291.0 for valsartan and m/z 336.1 → 320.0 for berberine. […] The intraday and interday precision ranged from 1.80% to 9.23%.
experimental-endpoint: C0 (ng/mL)
Entry rule: numbers only, all in ng/mL.

Endpoint output: C0 of CCCCC(=O)N(Cc1ccc(-c2ccccc2-c2nnn[nH]2)cc1)[C@H](C(=O)O)C(C)C [Valsartan, valsartan] . Value?
401
